test_method_notes: Lipophilicity, log D of the compound
Assay type: physicochemical
measurement_setup: octanol/water
recorded_endpoint: logD

Previously resolved entries follow.
* O=C(Nc1nc(CC(=O)N2CCN(CC(=O)N3CCCC3)CC2)cs1)c1ccc(Cl)cc1 | 2.2
* O=C(Cn1cnc(NC(=O)c2ccc(Cl)s2)n1)Nc1ccc(-n2ccccc2=O)cc1F | 2.4

(a) O=C(CN1C[C@H](NC(=O)c2ccc(Cl)s2)[C@@H](OCCO)C1)Nc1ccc(-n2ccccc2=O)cc1F
(b) O=C(CN1CC[C@@H](NC(=O)c2ccc(Cl)s2)C1)Nc1ccc(-n2ccccc2=O)cc1F
Lab note: check whether a or b shows the higher recorded logD. Indicate your choice by writing its label.
b
